target: HLA-A*0201 class I monomer of the iTopia Epitope Discovery System; assay: iTopia peptide binding (ED50)
pEC50: −log10 of the molar value.
observed-property: pEC50

{"binder": "ALWSIPVHPV [PSMA288-297 analog, Ala at P1, Trp at P3, Val at PΩ]", "observed-property": "pEC50", "val": 6.31}
